# system: Myt1 kinase (CDK1 Thr14 phosphorylation in DAOY medulloblastoma cells) (Homo sapiens)
# Construct: pCDK1 Thr14 AlphaLISA read-out
# Sequence (Q99640 whole entry): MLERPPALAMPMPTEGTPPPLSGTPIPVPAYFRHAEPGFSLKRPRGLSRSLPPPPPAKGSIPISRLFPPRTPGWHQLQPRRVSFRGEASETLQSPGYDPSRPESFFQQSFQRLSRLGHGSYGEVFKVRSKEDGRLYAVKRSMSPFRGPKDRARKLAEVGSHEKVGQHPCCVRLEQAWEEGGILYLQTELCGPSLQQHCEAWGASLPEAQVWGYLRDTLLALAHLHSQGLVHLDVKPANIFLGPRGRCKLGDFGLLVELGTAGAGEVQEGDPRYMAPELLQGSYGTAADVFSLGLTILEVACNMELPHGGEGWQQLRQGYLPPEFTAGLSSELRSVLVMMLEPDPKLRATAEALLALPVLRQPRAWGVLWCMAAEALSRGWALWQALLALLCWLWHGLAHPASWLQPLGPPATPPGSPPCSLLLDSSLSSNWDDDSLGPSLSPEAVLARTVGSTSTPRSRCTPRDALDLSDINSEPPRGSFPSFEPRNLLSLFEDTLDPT
# protocol.notes: AlphaLISA assay, Myt1 kinase target engagement (phospho-CDK1 Thr14) in DAOY cells
# Assay type: cell-based
# test.context: read-out: CDK1 Thr14 Phosphorylation EC50, 4 h treatment
pEC50: −log10 of the molar value.
quantity: pEC50

C=CCn1c(=O)c2cnc(Nc3cnn(C)c3)nc2n1-c1cccc(O[C@H]2C[C@H]3CC[C@@H](C2)N3C)n1 = 6.00 to 6.30

====

Examples of molecules with documented EC50 follow.
# system: Wee1A kinase (CDK1 Tyr15 phosphorylation in ACHN renal cell carcinoma cells) (Homo sapiens, UniProt P30291)
# Construct: pCDK1 Tyr15 immunofluorescence read-out
# Sequence (P30291 whole entry): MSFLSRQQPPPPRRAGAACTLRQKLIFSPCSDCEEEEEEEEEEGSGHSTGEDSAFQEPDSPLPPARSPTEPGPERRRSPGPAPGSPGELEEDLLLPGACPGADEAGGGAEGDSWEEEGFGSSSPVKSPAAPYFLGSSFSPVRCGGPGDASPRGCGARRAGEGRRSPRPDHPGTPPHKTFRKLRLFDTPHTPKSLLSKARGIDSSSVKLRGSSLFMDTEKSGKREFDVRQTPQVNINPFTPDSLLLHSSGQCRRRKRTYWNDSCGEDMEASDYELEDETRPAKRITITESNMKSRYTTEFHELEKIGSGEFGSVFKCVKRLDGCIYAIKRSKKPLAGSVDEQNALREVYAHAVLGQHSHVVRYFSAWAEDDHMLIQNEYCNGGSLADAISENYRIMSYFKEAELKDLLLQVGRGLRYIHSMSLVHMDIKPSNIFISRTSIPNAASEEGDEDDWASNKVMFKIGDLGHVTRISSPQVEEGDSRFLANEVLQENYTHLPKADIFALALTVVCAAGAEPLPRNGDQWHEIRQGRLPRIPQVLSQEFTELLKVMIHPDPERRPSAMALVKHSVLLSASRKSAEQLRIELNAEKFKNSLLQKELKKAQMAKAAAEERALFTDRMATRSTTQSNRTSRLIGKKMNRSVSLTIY
# protocol.notes: High-content imaging of pCdk1 Y15, Wee1A kinase target engagement in ACHN cells
# Format: cell-based
# test.context: 4 h treatment, nuclear positivity for pCdk1 Y15 vs DMSO control, read-out: CDK1 Tyr15 Phosphorylation EC50
quantity: EC50

C=CCn1c(=O)c2cnc(Nc3ccc(Cl)cc3)nc2n1-c1cccc(OC2CCNCC2)n1 [Compound 141] = < 100 nM
C=CCn1c(=O)c2cnc(Nc3cc(C)cc(F)c3)nc2n1-c1cccc(NC2CCN(C)CC2)n1 [Compound 161] = < 100 nM
Cn1ccc2cc(Nc3ncc4c(=O)n(C)n(-c5cccc(OC6CCNCC6)n5)c4n3)ccc21 [Compound 336] = < 100 nM
C=CCn1c(=O)c2cnc(Nc3cc(C)nc(C(F)(F)F)c3)nc2n1-c1cccc(OC2CCN(C)CC2)n1 [Compound 202] = 500 to 1000 nM
C=CCn1c(=O)c2cnc(Nc3ccc(Cl)cc3)nc2n1-c1cccc(N[C@@H]2CCCNC2)n1 [Compound 166] = > 1000 nM
C=CCn1c(=O)c2cnc(Nc3ccc(F)c(C)c3)nc2n1-c1cccc(NC2CCNCC2)n1 [Compound 128] = 100 to 500 nM
C=CCn1c(=O)c2cnc(Nc3ccc4c(cnn4C4CC4)c3)nc2n1-c1cccc(OC2CCNCC2)n1 [Compound 376] = < 100 nM

====

# system: Wee1A kinase (CDK1 Tyr15 phosphorylation in ACHN renal cell carcinoma cells) (Homo sapiens, UniProt P30291)
# Construct: pCDK1 Tyr15 immunofluorescence read-out
# protocol.notes: High-content imaging of pCdk1 Y15, Wee1A kinase target engagement in ACHN cells
# Format: cell-based
# test.context: 4 h treatment, nuclear positivity for pCdk1 Y15 vs DMSO control, read-out: CDK1 Tyr15 Phosphorylation EC50
In this section, each of the compounds is paired with its reported EC50.
quantity: EC50

C=CCn1c(=O)c2cnc(Nc3ccc4c(cnn4C)c3)nc2n1-c1cccc(OC2CCCN(C)CC2)n1 (single isomer, unassigned) [Compound 374] = < 100 nM
C=CCn1c(=O)c2cnc(Nc3ccc4nn(C(C)(C)C)cc4c3)nc2n1-c1cccc(OC2CCNCC2)n1 [Compound 395] = < 100 nM
C=CCn1c(=O)c2cnc(Nc3ccc4scnc4c3)nc2n1-c1cccc(OC2CCNCC2)n1 [Compound 246] = < 100 nM
C=CCn1c(=O)c2cnc(Nc3ccc4c(ccn4C)c3)nc2n1-c1cccc(OC2CCN(C)CC2)n1 [Compound 186] = < 100 nM
C=CCn1c(=O)c2cnc(Nc3cnn(C)c3)nc2n1-c1cccc(OC2CCN(C)CC2)c1 [Compound 221] = 500 to 1000 nM
C=CCn1c(=O)c2cnc(Nc3ccc(F)cc3)nc2n1-c1ccnc(OC2CCN(C)CC2)n1 [Compound 348] = < 100 nM
C=CCn1c(=O)c2cnc(Nc3ccc(N4CCOCC4)c(C)c3)nc2n1-c1cccc(OC2CCNCC2)n1 [Compound 262] = < 100 nM
CCn1c(=O)c2cnc(Nc3cnn(C)c3)nc2n1-c1cccc(OC2CCN(C)CC2)n1 [Compound 341] = 100 to 500 nM
C=CCn1c(=O)c2cnc(Nc3ccc4c(cnn4CCC)c3)nc2n1-c1cccc(OC2CCN(C)CC2)n1 [Compound 385] = < 100 nM
C=CCn1c(=O)c2cnc(Nc3ccc4[nH]ncc4c3)nc2n1-c1cccc(OC2CCN(C)CC2)n1 [Compound 238] = < 100 nM
C=CCn1c(=O)c2cnc(Nc3ccnc(C)c3)nc2n1-c1cccc(OC2CCNCC2)n1 [Compound 113] = 500 to 1000 nM
C=CCn1c(=O)c2cnc(Nc3ccc4c(cnn4C)c3)nc2n1-c1cccc(O[C@H]2CCN(C)C2)n1 [Compound 105] = < 100 nM
C=CCn1c(=O)c2cnc(Nc3ccc4c(cnn4C)c3)nc2n1-c1cccc(O[C@@H]2CCN(C)[C@@H](C)C2)n1 (stereo in doubt) [Compound 403] = < 100 nM
C=CCn1c(=O)c2cnc(Nc3ccc4c(cnn4C)c3)nc2n1-c1cccc(OC2CCNC(C)(C)C2)n1 (centres unmarked) [Compound 337] = < 100 nM
C=CCn1c(=O)c2cnc(Nc3ccc(Cl)cc3)nc2n1-c1cccc(N(C)[C@@H]2CCCNC2)n1 [Compound 171] = > 1000 nM
C=CCn1c(=O)c2cnc(Nc3ccc(C)nc3)nc2n1-c1cccc(OC2CCN(C)CC2)n1 [Compound 197] = < 100 nM
C=CCn1c(=O)c2cnc(Nc3ccc4c(c3)ncn4C)nc2n1-c1cccc(OC2CCN(C)CC2)n1 [Compound 211] = < 100 nM
C=CCn1c(=O)c2cnc(Nc3ccc4c(c3)OCO4)nc2n1-c1cccc(OC2CCN(C)CC2)n1 [Compound 307] = < 100 nM
C=CCn1c(=O)c2cnc(Nc3ccc(F)cc3)nc2n1-c1cccc(OC2CCCN(C)CC2)n1 (centres unmarked) [Compound 317] = 100 to 500 nM
C=CCn1c(=O)c2cnc(Nc3ccc4c(cnn4C)c3)nc2n1-c1cccc(O[C@@H]2CCCNC2)n1 [Compound 103, bis(trifluoroacetic acid)] = < 100 nM
C=CCn1c(=O)c2cnc(Nc3ccc4c(cnn4C)c3)nc2n1-c1cccc(OC2CCN(C)C(C)(C)C2)n1 (centres unmarked) [Compound 343] = 100 to 500 nM
C=CCn1c(=O)c2cnc(Nc3ccc4oc(C)nc4c3)nc2n1-c1cccc(OC2CCN(C)CC2)n1 [Compound 231] = < 100 nM
CCn1c(=O)c2cnc(Nc3cccc(-c4cccnc4)c3)nc2n1-c1cccc(OC2CCN(C)CC2)n1 [Compound 352] = < 100 nM
C=CCn1c(=O)c2cnc(Nc3ccc(Cl)cc3)nc2n1-c1cccc(NC2CCNCC2)n1 [Compound 124] = 500 to 1000 nM
C=CCn1c(=O)c2cnc(Nc3ccc4nn(CC)cc4c3)nc2n1-c1cccc(OC2CCNCC2)n1 [Compound 276] = < 100 nM
C=CCn1c(=O)c2cnc(Nc3ccc4nc(C)sc4c3)nc2n1-c1cccc(OC2CCNCC2)n1 [Compound 264] = < 100 nM
C=CCn1c(=O)c2cnc(Nc3cnn(CCC)c3)nc2n1-c1cccc(OC2CCN(C)CC2)n1 [Compound 180] = < 100 nM
[2H]C([2H])([2H])c1cccc(Nc2ncc3c(=O)n(CC=C)n(-c4cccc(OC5CCN(C)CC5)n4)c3n2)c1 [Compound 333] = < 100 nM
C=CCn1c(=O)c2cnc(Nc3ccc4nn(CC)cc4c3)nc2n1-c1cccc(OC2CCN(C)CC2)n1 [Compound 282] = < 100 nM
